Values from ChEMBL document CHEMBL5724914

assay: The drug is tested on WLS-038 corresponding to human gut metagenome with ENA study accession number: PRJEB37062 and ENA sample accession number: ERS12561745 for biotransformation under anaerobic condition. The drug concentrations were measured over 9 timepoints collected between 0 and 24 hours of incubation by liquid-chromatography-coupled mass spectrometry (LC–MS); settings: 2 µM; also: call rule not given here
OBSERVATION TYPE: Bacterial Biotransformation

Here are 10 compounds together with their reported answers.
{"columns": ["COMPOUND", "Bacterial Biotransformation"],
 "data": [
  ["CN1C[C@H](C(=O)N[C@]2(C)O[C@@]3(O)[C@@H]4CCCN4C(=O)[C@H](Cc4ccccc4)N3C2=O)C=C2c3cccc4[nH]cc(c34)C[C@H]21.CN1C[C@H](C(=O)N[C@]2(C)O[C@@]3(O)[C@@H]4CCCN4C(=O)[C@H](Cc4ccccc4)N3C2=O)C=C2c3cccc4[nH]cc(c34)C[C@H]21.O=C(O)C(O)C(O)C(=O)O [ERGOTAMINE TARTRATE]", "Compound NOT metabolized"],
  ["Cc1ccccc1N1C(=O)c2cc(S(N)(=O)=O)c(Cl)cc2NC1C (stereo not given) [METOLAZONE]", "Compound NOT metabolized"],
  ["CC(=O)OCC(=O)[C@@]12N=C(C)O[C@@H]1C[C@H]1[C@@H]3CCC4=CC(=O)C=C[C@]4(C)[C@H]3[C@@H](O)C[C@@]12C [DEFLAZACORT]", "Compound metabolized"],
  ["O=C(NCc1ccccc1)OCCO [BURAMATE]", "Compound NOT metabolized"],
  ["COc1c2occc2cc2ccc(=O)oc12 [METHOXSALEN]", "Compound metabolized"],
  ["CS(=O)(=O)O.O.O.O.O=C1Cc2cc(CCN3CCN(c4nsc5ccccc45)CC3)c(Cl)cc2N1 [ZIPRASIDONE MESYLATE]", "Compound metabolized"],
  ["Cc1ccc(-c2cc(C(F)(F)F)nn2-c2ccc(S(N)(=O)=O)cc2)cc1 [CELECOXIB]", "Compound metabolized"],
  ["Cc1nc(-c2ccc(OCC(C)C)c(C#N)c2)sc1C(=O)O [FEBUXOSTAT]", "Compound metabolized"],
  ["COc1cc2nc(N3CCN(C(=O)c4ccco4)CC3)nc(N)c2cc1OC [PRAZOSIN]", "Compound NOT metabolized"],
  ["CN(C)CCc1c[nH]c2ccc(Cn3cncn3)cc12.O=C(O)c1ccccc1 [RIZATRIPTAN BENZOATE]", "Compound NOT metabolized"]
]}

Fill in: Bacterial Biotransformation of NC(CO)(CO)CO.O=C(c1ccccc1)c1ccc2n1CCC2C(=O)O (stereo not given) [KETOROLAC TROMETHAMINE] is ___
Compound metabolized

Subsequent entry: CN(C)CCC=C1c2ccccc2C=Cc2ccccc21 [CYCLOBENZAPRINE]
Compound NOT metabolized

Subsequent entry: COc1cc2c(c(OC)c1OC)-c1ccc(OC)c(=O)cc1[C@@H](NC(C)=O)CC2 [COLCHICINE]
Compound NOT metabolized

Subsequent entry: CCC(COC(=O)c1cc(OC)c(OC)c(OC)c1)(c1ccccc1)N(C)C.O=C(O)/C=C\C(=O)O (stereo not given)
Compound NOT metabolized

Subsequent entry: O=c1[nH]c2ccccc2n1CCCN1CCC(n2c(=O)[nH]c3cc(Cl)ccc32)CC1 [DOMPERIDONE]
Compound NOT metabolized

Subsequent entry: C[C@@H]1CC[C@H]2[C@@H](C)C(=O)O[C@@H]3O[C@@]4(C)CC[C@@H]1[C@]32OO4 [ARTEMISININ]
Compound metabolized
